molecular target: KRAS Q61H (Homo sapiens (Human), UniProt P01116+P62937, Q61H); assay: Ras-Raf disruption/FRET/MOA assay (BRAF RBD, Cyclophilin A); format: biochemical
Sequence (P01116 other isoform, or with tags, fused parts or gaps Q61H): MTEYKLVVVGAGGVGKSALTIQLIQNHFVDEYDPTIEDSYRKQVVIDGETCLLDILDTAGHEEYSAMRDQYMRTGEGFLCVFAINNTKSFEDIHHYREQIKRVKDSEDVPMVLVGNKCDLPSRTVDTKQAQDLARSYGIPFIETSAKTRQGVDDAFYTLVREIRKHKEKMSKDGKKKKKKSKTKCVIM
Sequence (P62937 whole entry): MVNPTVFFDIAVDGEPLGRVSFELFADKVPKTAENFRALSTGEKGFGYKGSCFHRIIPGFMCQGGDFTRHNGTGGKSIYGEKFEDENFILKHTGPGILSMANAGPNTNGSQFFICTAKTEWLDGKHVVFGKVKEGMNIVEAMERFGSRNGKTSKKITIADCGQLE
pIC50: −log10 of the molar value.
measurement-name: pIC50

chem_smiles=CCn1c(-c2cccnc2[C@H](C)OC)c2c3cc(ccc31)-c1csc(n1)C[C@H](NC(=O)[C@H](C(C)C)N(C)C(=O)N1CC(O)(COC)C1)C(=O)N1CCC[C@H](N1)C(=O)OCC(C)(C)C2 result="6.00 to 7.00"
chem_smiles=CCn1c(-c2cccnc2[C@H](C)OC)c2c3cc(ccc31)-c1csc(n1)C[C@H](NC(=O)[C@H](C(C)C)N(C)C(=O)N1CCN3C(=O)CN(C)C[C@H]3C1)C(=O)N1CCC[C@H](N1)C(=O)OCC(C)(C)C2 result="7.00 to 8.00"

Now let's try a different one.
Value of pIC50 reported for the molecule CCn1c(-c2cccnc2[C@H](C)OC)c2c3cc(ccc31)-c1csc(n1)C[C@H](NC(=O)[C@H](C(C)C)N(C)C(=O)N1CC(C#N)(N(C)C)C1)C(=O)N1CCC[C@H](N1)C(=O)OCC(C)(C)C2 is 6.00 to 7.00
